Numbers sourced from PubChem BioAssay AID330.

Attribute: T/C
system: P388 leukemia ip, CD2F1 mice, survival T/C; assay: NCI In Vivo Anticancer Drug Screen. Data for tumor model P388 Leukemia (intraperitoneal) in CD2F1 (CDF1) mice; conditions: endpoint: median survival time; dose: 200.0 mg/kg/injection; schedule: Q01DX009 (ip); vehicle: suspension in saline; higher = longer survival
Inconclusive results and toxic doses are left out.

# molecule, T/C
rows = [
    ("Fc1ccc(NC(=S)SCc2ccccc2)cc1", "101 % of control"),
    ("Cc1cc(NC(=S)SCc2ccc(Cl)cc2)ccc1F", "94 % of control"),
    ("O=C1CCCc2ccc([N+](=O)[O-])cc21", "93 % of control"),
    ("CN(C)c1ccc(C2NC(C(=O)O)CS2)cc1 (stereo unspecified)", "100 % of control"),
    ("c1ccc2[nH]cnc2c1", "106 % of control"),
    ("Fc1ccc(NC(=S)SCc2ccc(Cl)cc2)c(F)c1", "100 % of control"),
]

---

System: P388 leukemia ip, CD2F1 mice, survival T/C
Assay: NCI In Vivo Anticancer Drug Screen. Data for tumor model P388 Leukemia (intraperitoneal) in CD2F1 (CDF1) mice
Conditions: endpoint: median survival time; dose: 120.0 mg/kg/injection; schedule: Q01DX005 (ip); vehicle: saline with Tween-80; higher = longer survival
Procedure: The antitumor activity of compounds was measured in mice bearing transplantable tumors. Survival or tumor size were measured and the results are expressed as the measurement made in the treated group (T) divided by the measurement made in the vehicle treated control group (C). The tumor model used in this assay is P388 Leukemia (intraperitoneal) in CD2F1 (CDF1) mice
Toxic doses and inconclusive results are not listed.
Attribute: T/C

# compound, T/C
data = [
    ("CN(C)c1ccc(C(c2cc3c(cc2O)OCO3)N2CCOCC2)cc1 (centres undefined)", "120 % of control"),
    ("Cc1ccccc1N1CC2CC3C=CC2(C1)O3 (centres undefined)", "97 % of control"),
    ("CCc1cc2nc3c(=O)[nH]c(=O)nc-3n(CCN(CCO)CCO)c2cc1CC", "116 % of control"),
    ("O=C1N2CCCSC2=NC1(c1ccccc1)c1ccccc1", "98 % of control"),
    ("CNC/C(Cl)=N/S(=O)(=O)c1ccc(C)cc1", "99 % of control"),
    ("CC(=O)OCCNc1n[nH]c(=O)c2ccncc12", "101 % of control"),
    ("CCNc1ccc(C(=O)c2cccc(N)c2)cc1N", "96 % of control"),
    ("CCOC1Oc2ccccc2-c2nc(C)c(C#N)cc21 (centres undefined)", "88 % of control"),
    ("O=C(CSc1nnc(-c2ccc(Cl)cc2)s1)Nc1nccs1", "89 % of control"),
    ("COc1cc(/C=C2/Nc3ccc(Cl)cc3NC2=O)ccc1O", "98 % of control"),
    ("COc1cc(C(Nc2ncccn2)c2cc3c(cc2OC(C)=O)OCO3)cc(OC)c1OC(C)=O (centres undefined)", "100 % of control"),
    ("Clc1ccc(NCNC2Nc3ccccc3N2)cc1Cl", "93 % of control"),
    ("C=CCOc1cc2c(cc1C/C=C\\c1ccc(OC)cc1)OCO2", "104 % of control"),
    ("N#COc1ccc(-c2ccccc2)cc1", "87 % of control"),
    ("CC(C)(Br)C(=O)/C=C/c1ccc(Cl)c(Cl)c1", "118 % of control"),
    ("COc1ccc(NS(=O)(=O)c2ccc(N=Cc3c4ccccc4nc4cc(Cl)ccc34)cc2)nn1", "90 % of control"),
    ("CCOC(=O)Cc1csc2nc(-c3ccccc3)cn12", "104 % of control"),
    ("O=c1[nH]nc(-c2ccccc2)c2c1[nH]c1ccccc12", "96 % of control"),
    ("COc1cc2cc3cc(-c4ccc(Cl)cc4)c(N4CCOCC4)nc3nc2cc1OC", "91 % of control"),
    ("CC(=O)OCCN1CCOC(O)(c2cccc(C(F)(F)F)c2)C1 (centres undefined)", "108 % of control"),
    ("O=C1CSC(c2cccc(O)c2)N1c1nncs1 (centres undefined)", "107 % of control"),
    ("O=C(CN1CCN(c2ccccc2)CC1)n1ccnc1", "97 % of control"),
    ("COCC(Cl)/C(N)=N\\S(=O)(=O)c1c(C)cc(Cl)cc1Cl (centres undefined)", "100 % of control"),
    ("N#Cc1c(C(=O)NOCCCc2ccccc2)cc(-c2ccc(F)cc2)[nH]c1=O", "103 % of control"),
]
